Reported phosphorylation enrichment by item:
# ASSAY_TARGET: FGFR3 (UniProt P22607)
# Sequence (P22607 whole entry, looked up): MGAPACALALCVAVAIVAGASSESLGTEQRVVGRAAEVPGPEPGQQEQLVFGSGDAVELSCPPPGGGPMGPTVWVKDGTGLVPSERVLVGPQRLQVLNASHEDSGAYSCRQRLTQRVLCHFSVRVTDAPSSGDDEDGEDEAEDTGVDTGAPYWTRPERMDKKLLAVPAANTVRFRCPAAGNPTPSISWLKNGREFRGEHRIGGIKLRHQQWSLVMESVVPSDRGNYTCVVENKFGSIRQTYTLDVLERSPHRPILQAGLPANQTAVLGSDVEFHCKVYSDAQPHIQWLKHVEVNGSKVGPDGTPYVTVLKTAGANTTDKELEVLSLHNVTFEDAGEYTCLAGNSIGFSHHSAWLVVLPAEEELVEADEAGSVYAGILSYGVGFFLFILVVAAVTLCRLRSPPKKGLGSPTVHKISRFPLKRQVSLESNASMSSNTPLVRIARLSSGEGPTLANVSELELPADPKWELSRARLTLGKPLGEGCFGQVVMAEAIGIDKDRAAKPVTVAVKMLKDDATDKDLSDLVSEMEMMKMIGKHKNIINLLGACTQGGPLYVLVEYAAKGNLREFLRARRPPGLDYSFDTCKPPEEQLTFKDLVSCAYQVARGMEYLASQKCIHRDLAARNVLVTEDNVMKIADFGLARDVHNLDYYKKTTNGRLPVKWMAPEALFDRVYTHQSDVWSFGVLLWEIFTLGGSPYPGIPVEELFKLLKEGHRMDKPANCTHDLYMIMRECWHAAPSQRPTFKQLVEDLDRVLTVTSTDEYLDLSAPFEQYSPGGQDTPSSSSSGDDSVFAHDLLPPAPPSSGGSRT
# TEST: phosphorylation enrichment, bacterial display (enrichment ratio); higher = better substrate or ligand; peptides without Tyr show the background;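 further: 11-residue human phosphosite peptides and single-mutation variants displayed on the E. coli surface, counted by deep sequencing, each peptide's frequency after selection divided by its frequency in the unselected input library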;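 further: frequency after pTyr selection over input frequency; kinase dosed for 20-30% of maximal phosphorylation in three min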
ASSAY_READOUT: phosphorylation enrichment

INSERT INTO measurements (entry_sequence, assay_target, measurement) VALUES
  ('SNKELYEKYMI', 'FGFR3 (UniProt P22607)', 0.579),
  ('RESYKYFPSSL [CXXC1_Y218]', 'FGFR3 (UniProt P22607)', 1.09),
  ('HHIDYYKETTN [FGFR1_Y654_K656E]', 'FGFR3 (UniProt P22607)', 0.935),
  ('KTNVSYFGALD [CACNB4_Y103_C104F]', 'FGFR3 (UniProt P22607)', 0.634),
  ('FVPSFYHAFSG [ACTN4_Y265_S262P_YF]', 'FGFR3 (UniProt P22607)', 0.824),
  ('SVVVPNEPPEV [TP53_Y220_Y220N]', 'FGFR3 (UniProt P22607)', 0.81),
  ('AQESNYRLLRQ [SLC20A2_Y377_R382Q]', 'FGFR3 (UniProt P22607)', 0.445),
  ('ETLLYYGCRRS [POR_Y564]', 'FGFR3 (UniProt P22607)', 0.71),
  ('NARGLYFKLHN [GATA2_Y376_C373R_YF]', 'FGFR3 (UniProt P22607)', 0.87),
  ('RQQEDYLLFKQ [RARRES1_Y159_YF]', 'FGFR3 (UniProt P22607)', 1.28),
  ('DRPSEYAARQL [ANXA13_Y90]', 'FGFR3 (UniProt P22607)', 0.482),
  ('TQNAVYSAANY [DDX5_Y535_G533A]', 'FGFR3 (UniProt P22607)', 0.619),
  ('FTDGQYWIRGR [ACSF3_Y466_K462T]', 'FGFR3 (UniProt P22607)', 0.555),
  ('LLREWYVQDPY [SIX3_Y225_L226V]', 'FGFR3 (UniProt P22607)', 0.771),
  ('FGSVDCWEKFF [EEF1AKNMT_Y16_Y16C]', 'FGFR3 (UniProt P22607)', 0.569),
  ('PTYENYANSTQ [SLC12A3_Y70_H69N]', 'FGFR3 (UniProt P22607)', 0.555),
  ('EEGNPYYSSAR [MCCC2_Y520]', 'FGFR3 (UniProt P22607)', 0.647),
  ('KPRKLYTIKKP [BRD2_Y715_P714L]', 'FGFR3 (UniProt P22607)', 0.427),
  ('SGVVPYEPPEV [TP53_Y220_V216G]', 'FGFR3 (UniProt P22607)', 0.781),
  ('LEQRPYRRGSE [KCNJ12_Y427_E430G]', 'FGFR3 (UniProt P22607)', 0.511),
  ('WVFNHYRWIIW [BRCA2_Y2624_YF]', 'FGFR3 (UniProt P22607)', 0.824),
  ('VISNAYVDLAP [HSD17B4_Y602]', 'FGFR3 (UniProt P22607)', 0.653),
  ('FGGRDYSLDEF [MYOF_Y1705_YF]', 'FGFR3 (UniProt P22607)', 0.733),
  ('STEEQYRICQV [EFHC1_Y115_R118C]', 'FGFR3 (UniProt P22607)', 0.848),
  ('LLKAGYHGVLR [TTPA_Y100]', 'FGFR3 (UniProt P22607)', 0.679),
  ('TEGNEYVFRVA', 'FGFR3 (UniProt P22607)', 0.822),
  ('RNDQVYQPLRD [CD3D_Y149]', 'FGFR3 (UniProt P22607)', 0.927),
  ('QDTSRYTVSNL [BIRC3_Y245]', 'FGFR3 (UniProt P22607)', 0.71),
  ('LRYEVYGGENE [STOX1_Y610]', 'FGFR3 (UniProt P22607)', 0.692),
  ('TSNQEYLYLSM [FGFR1_Y766_D768Y]', 'FGFR3 (UniProt P22607)', 8.18),
  ('VLVSQYEKLDA [AMZ2_Y26_N30D]', 'FGFR3 (UniProt P22607)', 0.589),
  ('TEVIWYKGDEE', 'FGFR3 (UniProt P22607)', 0.704),
  ('DIDKIYIRTGI [PIK3CA_Y355_V356I]', 'FGFR3 (UniProt P22607)', 0.673),
  ('PTDCVYVMPTV [MYO7A_Y1668_S1666C]', 'FGFR3 (UniProt P22607)', 3.92),
  ('LARDMHDKEFF [MET_Y1230_Y1230H_YF]', 'FGFR3 (UniProt P22607)', 0.661),
  ('PKKKQYTSIHH [APP_Y728_L723P]', 'FGFR3 (UniProt P22607)', 0.928),
  ('CKRQFYLYKGK [RSPO4_Y112]', 'FGFR3 (UniProt P22607)', 0.704),
  ('QDGYSYPSRQM [LDLR_Y847]', 'FGFR3 (UniProt P22607)', 0.87),
  ('IRQDDYESLKE [MTR_Y921_H920D]', 'FGFR3 (UniProt P22607)', 0.608),
  ('VASSLYDIFAR [GLB1_Y294_L297F]', 'FGFR3 (UniProt P22607)', 0.714),
  ('AEEKEYHAEEG [EGFR_Y869_G873E]', 'FGFR3 (UniProt P22607)', 0.747),
  ('RAMRRYLEWGE [ERBB3_Y680_R683W]', 'FGFR3 (UniProt P22607)', 0.314),
  ('DTYDPYLDIAL [USP36_Y268_V271I]', 'FGFR3 (UniProt P22607)', 0.968),
  ('NRVEIYEKTVE [CYFIP1_Y108]', 'FGFR3 (UniProt P22607)', 0.696),
  ('RGRSTYYWPRP [GAGE12J_Y9]', 'FGFR3 (UniProt P22607)', 0.869),
  ('GLDGSYLPRDS [SH2D1A_Y29_L31P]', 'FGFR3 (UniProt P22607)', 0.446),
  ('ALMGLYHGQVL [HADHA_Y343]', 'FGFR3 (UniProt P22607)', 0.641),
  ('ARGMEYLASKK [FGFR1_Y613]', 'FGFR3 (UniProt P22607)', 0.409),
  ('ETSHNYHKFDS [MATR3_Y243]', 'FGFR3 (UniProt P22607)', 0.475),
  ('DFSLKYPTDIP [APC_Y1183_A1184P_YF]', 'FGFR3 (UniProt P22607)', 0.685),
  ('LDFPEYDGVDR [CASQ1_Y43]', 'FGFR3 (UniProt P22607)', 1.37),
  ('AVLSLYASGRN [ACTA1_Y145_T150N]', 'FGFR3 (UniProt P22607)', 0.581),
  ('QEGPEYWDRNT [HLA-B_Y83]', 'FGFR3 (UniProt P22607)', 0.913),
  ('LLANAYIFDVQ [L1CAM_Y418_V421D_YF]', 'FGFR3 (UniProt P22607)', 1.17),
  ('IDFARYWHGND [MMP11_Y162_D166N]', 'FGFR3 (UniProt P22607)', 0.551),
  ('GRVLGYGAFRK [FLT4_Y853_G857R]', 'FGFR3 (UniProt P22607)', 0.495),
  ('DRLPSYLDKVR [KRT12_Y139_A137P]', 'FGFR3 (UniProt P22607)', 0.485),
  ('APRKVYDTRDD [ZFPL1_Y215]', 'FGFR3 (UniProt P22607)', 0.581);

Where do these numbers come from? They come from the supplement of paper PMC10065799.
